molecular target: UniProt:Q9P2K8; experiment: GCN2 enzyme inhibition assay (Transcreener ADP2 fluorescence polarization); format: biochemical; conditions: Enzyme activity for compounds of Formula IV; Ki(app), 280 μM ATP, 25° C.
The entries below come with measured Ki values attached.

compound	Ki
CC(C)(C)OC(=O)N1CCC2CCN(c3ccnc(-c4cnc5cnc(C(F)F)cn45)n3)CC21 (stereo not shown) [IV-132]	0.1 to 1 µM
CS(=O)(=O)NC1CCCN(c2ccnc(-c3cnc4cnc(C(N)=O)cn34)n2)C1 (stereo not shown) [IV-250]	0.1 to 1 µM
CC1C(C(N)=O)CCCN1c1ccnc(-c2cnc3cnc(C(F)(F)F)cn23)n1 (single isomer, unassigned) [IV-499]	< 0.01 µM
NC(=O)[C@H]1CCCN(c2ccnc(-c3cnc4cnc(C(F)(F)F)cn34)n2)C1 [IV-60]	< 0.01 µM
O=S1(=O)CCC2CN(c3ccnc(-c4cnc5cnc(C(F)(F)F)cn45)n3)CC21 (stereo not shown) [IV-570]	0.1 to 1 µM
FC(F)(F)c1cn2c(-c3nccc(N4CCCC(c5cc(C(F)(F)F)[nH]n5)C4)n3)cnc2cn1 (stereo not shown) [IV-653]	0.1 to 1 µM
Cn1nc(C2CCN(c3ccnc(-c4cnc5cnc(C(F)(F)F)cn45)n3)C2)cc1O (stereo not shown) [IV-647]	0.1 to 1 µM
C[C@@H]1CN(c2ccnc(-c3cnc4cnc(C(F)(F)F)cn34)n2)C[C@@H](c2c[nH]cn2)O1 (racemic) [IV-381]	0.01 to 0.1 µM
CCN1CCN(c2ccnc(-c3cnc4cnc(Br)cn34)n2)[C@@H](C)[C@H]1c1cn[nH]c1 (single isomer, unassigned) [IV-401]	0.01 to 0.1 µM
FC(F)c1cn2c(-c3nccc(-c4cnn(C5CCOC5)c4)n3)cnc2cn1 (stereo not shown) [IV-153]	0.1 to 1 µM
NC(=O)CCC1CCCN(c2ccnc(-c3cnc4cnc(C(F)F)cn34)n2)C1 (stereo not shown) [IV-45]	0.1 to 1 µM
NC(=O)c1cn2c(-c3nccc(N4CCC5(CCCO5)CC4)n3)cnc2cn1 [IV-269]	0.01 to 0.1 µM
NC(=O)CC1CCCN(c2ccnc(-c3cnc4cnc(C(F)(F)F)cn34)n2)C1 (stereo not shown) [IV-529]	0.1 to 1 µM
Cn1nc(C2CCCN(c3ccnc(-c4cnc5cnc(C(F)(F)F)cn45)n3)C2)cc1CCO (stereo not shown) [IV-662]	0.1 to 1 µM
FC(F)(F)c1cn2c(-c3nccc(N4CCC(c5cn[nH]c5)C4)n3)cnc2cn1 (single isomer, unassigned) [IV-540]	< 0.01 µM
FC(F)(F)c1cn2c(-c3nccc(N4CCCC(c5cn[nH]c5)C4)n3)cnc2cn1 (stereo not shown) [IV-59]	< 0.01 µM

====

The entries below come with measured pKi values attached.
target: GCN2 kinase (Homo sapiens); assay: GCN2 enzyme inhibition assay (Transcreener ADP2 fluorescence polarization); format: biochemical; settings: compounds of Formula II; 280 μM ATP, 4 nM GCN2 kinase
pKi: −log10 of the molar value.
observedProperty: pKi

molecule	readoutValue
FC(F)(F)c1ccc2ncc(-c3ccnc(N4CCOC(c5cn[nH]c5)C4)c3)n2n1 (centres unmarked) [II-225]	> 8.00
CS(=O)(=O)NCC1CC(C#N)CN(c2cc(-c3cnc4ccc(C(F)F)nn34)ncn2)C1 (centres unmarked)	6.00 to 8.00
C[C@H]1CN(c2cc(-c3cnc4ccc(C(F)(F)F)nn34)ccn2)C[C@@H](c2nc(C3CC3)no2)O1	6.00 to 8.00
CC(=O)N1CCN(c2ccnc(-c3cnc4ccc(C(F)F)nn34)c2)CC1	6.00 to 8.00
OCC1CCCN(c2cc(-c3cnc4ccc(C(F)F)nn34)ccn2)C1 (centres unmarked)	6.00 to 8.00
CS(=O)(=O)NCC1CCCN(c2cc(-c3cnc4ccc(C(F)F)nn34)ncn2)C1 (centres unmarked)	> 8.00
CC(C)(O)C1CCCN(c2cc(-c3cnc4ccc(C(F)F)nn34)ncn2)C1 (single isomer, unassigned) [II-613]	6.00 to 8.00
CS(=O)(=O)NC1CN(c2cc(-c3cnc4ccc(C(F)F)nn34)ncn2)CCC1(F)F (centres unmarked) [II-596]	6.00 to 8.00

====

target: intracellular GCN2 (phosphorylation of the GCN2 substrate eIF2α) (Homo sapiens, UniProt Q9P2K8); assay: GCN2 cellular inhibition assay (AlphaScreen SureFire P-eIF2α Ser51, borrelidin-treated U2OS cells); type: cell-based; details: compounds of Formula II; biomarker assay, phosphorylated eIF2α Ser51 in borrelidin-treated U2OS cells
Sequence (Q9P2K8 whole entry): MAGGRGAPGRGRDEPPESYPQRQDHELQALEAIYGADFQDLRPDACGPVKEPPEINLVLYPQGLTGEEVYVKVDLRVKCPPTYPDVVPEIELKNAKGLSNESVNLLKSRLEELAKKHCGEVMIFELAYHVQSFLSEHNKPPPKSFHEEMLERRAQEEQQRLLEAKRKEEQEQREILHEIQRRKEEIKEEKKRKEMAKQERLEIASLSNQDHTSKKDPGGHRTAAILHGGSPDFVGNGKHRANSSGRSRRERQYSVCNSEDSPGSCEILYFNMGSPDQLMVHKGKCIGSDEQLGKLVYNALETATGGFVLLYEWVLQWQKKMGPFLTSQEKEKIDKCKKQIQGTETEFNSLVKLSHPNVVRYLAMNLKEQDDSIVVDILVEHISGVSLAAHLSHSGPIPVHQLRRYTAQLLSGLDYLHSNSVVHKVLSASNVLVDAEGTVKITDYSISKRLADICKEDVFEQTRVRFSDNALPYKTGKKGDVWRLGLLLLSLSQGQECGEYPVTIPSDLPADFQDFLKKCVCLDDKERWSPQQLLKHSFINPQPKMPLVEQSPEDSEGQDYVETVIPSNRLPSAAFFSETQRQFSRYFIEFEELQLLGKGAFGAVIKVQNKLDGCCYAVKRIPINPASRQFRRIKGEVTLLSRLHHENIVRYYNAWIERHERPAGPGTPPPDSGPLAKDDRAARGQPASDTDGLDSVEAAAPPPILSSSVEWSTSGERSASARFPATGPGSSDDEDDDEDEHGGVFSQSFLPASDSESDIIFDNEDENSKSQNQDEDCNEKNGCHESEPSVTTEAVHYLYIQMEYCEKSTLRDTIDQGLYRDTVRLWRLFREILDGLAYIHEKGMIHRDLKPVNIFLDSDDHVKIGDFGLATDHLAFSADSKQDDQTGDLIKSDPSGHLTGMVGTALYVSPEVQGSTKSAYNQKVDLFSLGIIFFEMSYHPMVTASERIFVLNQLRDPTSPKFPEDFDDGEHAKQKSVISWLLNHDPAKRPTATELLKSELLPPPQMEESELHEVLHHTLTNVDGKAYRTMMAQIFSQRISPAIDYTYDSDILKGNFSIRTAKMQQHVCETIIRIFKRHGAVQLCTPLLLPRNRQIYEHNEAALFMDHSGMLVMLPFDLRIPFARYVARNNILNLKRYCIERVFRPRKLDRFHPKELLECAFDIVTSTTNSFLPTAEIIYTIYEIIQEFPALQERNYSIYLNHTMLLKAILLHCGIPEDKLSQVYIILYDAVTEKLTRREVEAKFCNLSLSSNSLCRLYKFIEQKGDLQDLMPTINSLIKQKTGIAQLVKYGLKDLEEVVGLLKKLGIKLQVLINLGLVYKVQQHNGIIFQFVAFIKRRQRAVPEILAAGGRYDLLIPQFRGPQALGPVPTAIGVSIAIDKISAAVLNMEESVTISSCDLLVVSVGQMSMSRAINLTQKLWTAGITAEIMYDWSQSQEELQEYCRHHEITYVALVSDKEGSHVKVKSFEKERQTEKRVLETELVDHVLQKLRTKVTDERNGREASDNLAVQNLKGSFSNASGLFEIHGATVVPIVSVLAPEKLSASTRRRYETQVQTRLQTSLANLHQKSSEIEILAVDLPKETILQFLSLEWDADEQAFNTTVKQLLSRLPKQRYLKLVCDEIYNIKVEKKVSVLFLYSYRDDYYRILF
observedProperty: IC50

molecule	observedProperty	readoutValue
CC1C(CNS(C)(=O)=O)N(C)CCN1c1cc(-c2cnc3ccc(C(F)F)nn23)ncn1 (mixture of isomers) [II-312]	IC50	< 0.5 µM
CC1C(CNS(C)(=O)=O)C(F)(F)C(C)CN1c1cc(-c2cnc3ccc(C(F)F)nn23)ncn1 (single isomer, unassigned) [II-471]	IC50	> 5 µM
CS(=O)(=O)N1CC2CCN(c3cc(-c4cnc5ccc(C(F)F)nn45)ncn3)C2C1 (stereo not shown)	IC50	> 5 µM
CS(=O)(=O)N1CCC2C(C1)OCCN2c1cc(-c2cnc3ccc(C(F)F)nn23)ncn1 (stereo not shown)	IC50	> 5 µM
CC1CN(c2cc(-c3cnc4ccc(C(F)F)nn34)ncn2)C(C)C(CNS(C)(=O)=O)=C1F (stereo not shown)	IC50	< 0.5 µM
CS(=O)(=O)NC[C@@H]1CN(c2cc(-c3cnc4ccc(C(F)F)nn34)ncn2)C[C@@H](C(F)(F)F)O1	IC50	0.5 to 5 µM
C[C@H]1[C@H](CNS(C)(=O)=O)N(C2CC2)CCN1c1cc(-c2cnc3ccc(C(F)F)nn23)ncn1	IC50	0.5 to 5 µM

====

molecular target: GCN2 kinase (Homo sapiens); test: GCN2 enzyme inhibition assay (Transcreener ADP2 fluorescence polarization); type: biochemical; details: Enzyme activity for compounds of Formula IV; Ki(app), 280 μM ATP, 25° C.
The entries below come with measured Ki values attached.

compound	measuredTarget	Ki
CC1CN(c2nccc(-c3cnc4cnc(C(F)(F)F)cn34)n2)CC(c2cn[nH]c2)O1 (single isomer, unassigned) [IV-202]	GCN2 kinase (Homo sapiens)	10 to 100 nM
CC1CCCN(c2cccc(-c3cnc4cnc(C(N)=O)cn34)n2)C1 (centres unmarked) [IV-205]	GCN2 kinase (Homo sapiens)	10 to 100 nM
Cc1cc(C2CCCN(c3ccnc(-c4cnc5cnc(C(F)F)cn45)n3)C2)n[nH]1 (centres unmarked) [IV-112]	GCN2 kinase (Homo sapiens)	100 to 1000 nM
CNc1cc(N2CC(C)NC(c3cn[nH]c3)C2C)nc(-c2cnc3cnc(C(F)(F)F)cn23)n1 (centres unmarked) [IV-578]	GCN2 kinase (Homo sapiens)	< 10 nM
Cc1cn2c(-c3nccc(N4CCNC(c5cn[nH]c5)C4C)n3)cnc2cn1 (centres unmarked) [IV-398]	GCN2 kinase (Homo sapiens)	10 to 100 nM
NC(=O)c1cn2c(-c3nccc(N4CCN5C(=O)CCCC5C4)n3)cnc2cn1 (centres unmarked) [IV-257]	GCN2 kinase (Homo sapiens)	10 to 100 nM
C[C@H]1[C@H](c2cn[nH]c2)OCCN1c1ccnc(-c2cnc3cnc(Cl)cn23)n1 (racemic) [IV-236]	GCN2 kinase (Homo sapiens)	10 to 100 nM
FC(F)(F)c1cn2c(-c3nccc(N4CCCC(n5ccnc5)C4)n3)cnc2cn1 (centres unmarked) [IV-255]	GCN2 kinase (Homo sapiens)	10 to 100 nM

====

The entries below come with measured pKi values attached.
target: GCN2 kinase (Homo sapiens); assay: GCN2 enzyme inhibition assay (Transcreener ADP2 fluorescence polarization); type: biochemical; conditions: compounds of Formula II; 280 μM ATP, 4 nM GCN2 kinase
pKi: −log10 of the molar value.

compound	measuredTarget	pKi
CCc1ccc2ncc(-c3cc(N4CCO[C@H](CNS(C)(=O)=O)C4)ncn3)n2n1	GCN2 kinase (Homo sapiens)	6.00 to 8.00
CC1C(CNS(C)(=O)=O)C(C)(O)CCN1c1cc(-c2cnc3ccc(C(F)F)nn23)ncn1 (stereo not shown)	GCN2 kinase (Homo sapiens)	> 8.00
C[C@H]1C[C@@H](CS(C)(=N)=O)[C@@H](C)N(c2cc(-c3cnc4ccc(C(F)F)nn34)ncn2)C1 (stereo partly shown) [II-605]	GCN2 kinase (Homo sapiens)	6.00 to 8.00
CS(C)(=O)=NC1CCCN(c2cc(-c3cnc4ccc(C(F)F)nn34)ncn2)C1 (stereo not shown) [II-408]	GCN2 kinase (Homo sapiens)	6.00 to 8.00

====

target: intracellular GCN2 (phosphorylation of the GCN2 substrate eIF2α) (Homo sapiens); assay: GCN2 cellular inhibition assay (AlphaScreen SureFire P-eIF2α Ser51, borrelidin-treated U2OS cells); type: cell-based; settings: compounds of Formula IV; biomarker assay, phosphorylated eIF2α Ser51 in borrelidin-treated U2OS cells
pIC50: −log10 of the molar value.

compound	pIC50
FC(F)(F)c1cn2c(-c3ccnc(N4CCOC(c5cn[nH]c5)C4)n3)cnc2cn1 (centres unmarked)	> 6.30
CC1(O)CCCN(c2ccnc(-c3cnc4cnc(C(F)F)cn34)n2)CC1 (centres unmarked)	< 5.30
CS(=O)(=O)NC[C@H]1CCCN(c2ccnc(-c3cnc4cnc(C(F)F)cn34)n2)C1	< 5.30
NC(=O)NCC1CCCN(c2ccnc(-c3cnc4cnc(C(F)F)cn34)n2)C1 (centres unmarked)	< 5.30
CC(C)(O)C1CC(c2cn[nH]c2)CN(c2ccnc(-c3cnc4cnc(C(F)(F)F)cn34)n2)C1 (single isomer, unassigned) [IV-685]	> 6.30
CC(C)c1nc(C2=CCCN(c3ccnc(-c4cnc5cnc(Br)cn45)n3)C2)c[nH]1	5.30 to 6.30
CC(C)(O)C1CC(c2cn[nH]c2)CN(c2ccnc(-c3cnc4cnc(C(F)(F)F)cn34)n2)C1 (single isomer, unassigned) [IV-682]	5.30 to 6.30
FC(F)(F)c1cn2c(-c3nccc(N4CCC(Oc5cn[nH]c5)C4)n3)cnc2cn1 (centres unmarked)	< 5.30
